Task for the reader: assign each of the following molecules its reported [3H]NMS equilibrium binding (%).
Biological target: Muscarinic acetylcholine receptor M2 (Sus scrofa)
Sequence (whole entry): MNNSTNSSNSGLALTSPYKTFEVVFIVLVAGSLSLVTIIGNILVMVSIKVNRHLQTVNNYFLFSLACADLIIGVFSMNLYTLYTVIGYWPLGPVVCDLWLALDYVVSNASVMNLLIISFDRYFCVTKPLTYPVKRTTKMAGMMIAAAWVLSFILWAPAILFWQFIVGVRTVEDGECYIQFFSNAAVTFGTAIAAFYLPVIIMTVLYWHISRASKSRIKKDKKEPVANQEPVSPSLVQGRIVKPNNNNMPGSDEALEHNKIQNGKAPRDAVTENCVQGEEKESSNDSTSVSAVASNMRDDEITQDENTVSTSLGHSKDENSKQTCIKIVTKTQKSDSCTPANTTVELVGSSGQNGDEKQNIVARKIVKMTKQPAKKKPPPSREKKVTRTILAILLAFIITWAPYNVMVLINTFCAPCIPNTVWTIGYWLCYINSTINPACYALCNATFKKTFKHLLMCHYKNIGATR
Assay: Equilibrium binding to muscarinic acetylcholine receptor M2 using [3H]NMS in porcine heart ventricles

Example entries and their recorded answers appear below.
Asked: // lookup [3H]NMS equilibrium binding (%) for COc1ccc(C[N+]23CC[C@@]45c6ccccc6N6[C@@H]7OCC=C8C[N+]9(Cc%10ccc(OC)cc%10)CC[C@]%10%11c%12ccccc%12N([C@@H]%12OCC=C(C2)[C@H](C[C@@H]43)[C@@H]%12[C@H]65)[C@H]%10[C@H]7[C@H]8C[C@@H]%119)cc1 (some centres undefined)
Given back: 70.4%

Asked: How about this molecule: O=C1c2ccccc2C(=O)N1CCC[N@+]12CCC34c5ccccc5N5C6OCC=C7C[N@+]8(CCCN9C(=O)c%10ccccc%10C9=O)CCC9%10c%11ccccc%11N(C%11OCC=C(C1)C(CC32)C%11C54)C9C6C7CC%108 (some centres undefined)
Given back: 88.4%

Asked: How about this molecule: C1=C2C[N@+]3(CC4CC4)CCC45c6ccccc6N6C7OCC=C8C[N@+]9(CC%10CC%10)CCC%10%11c%12ccccc%12N(C(OC1)C(C2CC43)C65)C%10C7C8CC%119 (some centres undefined)
Given back: 110%

Next:
Asked: // lookup [3H]NMS equilibrium binding (%) for O=[N+]([O-])c1ccc(C[N+]23CC[C@@]45c6ccccc6N6[C@@H]7OCC=C8C[N+]9(Cc%10ccc([N+](=O)[O-])cc%10)CC[C@]%10%11c%12ccccc%12N([C@@H]%12OCC=C(C2)[C@H](C[C@@H]43)C%12[C@H]65)[C@H]%10[C@H]7[C@H]8C[C@@H]%119)cc1 (some centres undefined)
Given back: 99.8%

====

Biological target: Muscarinic acetylcholine receptor M2 (Sus scrofa) (UniProt P06199)
Test: Concentration for half maximal inhibition of [3H]NMS dissociation from muscarinic acetylcholine receptor M2 in porcine heart ventricles
QUANTITY_KIND: pEC0.5
Give bare numbers.

Asked: // lookup pEC0.5 for `C=CC[N@@+]12CC[C@@]34c5ccccc5N5/C=C6/[C@H]7C[C@H]8[C@@]9(CC[N@@+]8(CC=C)C/C7=C/CO)c7ccccc7N(/C=C(/[C@@H](C[C@@H]31)/C(=C\CO)C2)[C@H]54)[C@@H]69`
Given back: 8.65

Asked: How about this compound: `C[N@@+]12CC[C@@]34c5ccccc5N5/C=C6/[C@H]7C[C@H]8[C@@]9(CC[N@@+]8(C)C/C7=C/CO)c7ccccc7N(/C=C(/[C@@H](C[C@@H]31)/C(=C\CO)C2)[C@H]54)[C@@H]69`
Given back: 7.02

Asked: How about this compound: C=CC[N+]12CC[C@@]34c5ccccc5N5[C@@H]6OCC=C7CN8CC[C@]9%10c%11ccccc%11N([C@@H]%11OCC=C(C1)[C@H](C[C@@H]32)[C@@H]%11[C@H]54)[C@H]9[C@H]6[C@H]7C[C@H]8%10 (some centres undefined)
Given back: 7.74

Proceed to the following item.
Asked: // lookup pEC0.5 for FC(F)(F)c1ccc(C[N+]23CC[C@@]45c6ccccc6N6[C@@H]7OCC=C8C[N+]9(Cc%10ccc(C(F)(F)F)cc%10)CC[C@]%10%11c%12ccccc%12N([C@@H]%12OCC=C(C2)[C@H](C[C@@H]43)[C@@H]%12[C@H]65)[C@H]%10[C@H]7[C@H]8C[C@@H]%119)cc1 (some centres undefined)
Given back: 5.76
